# Tested on: Bacillus subtilis
# ASSAY NOTES: cleaved RNA product abundance (RNA/gDNA barcode ratio) relative to median wild-type variant (ratio to wild type); higher = more accumulation of the downstream cleavage product
# RUN CONDITIONS: experiment (reporter, strain, medium): exp 4a: truncated aprE reporter, strain BJT201 with 2% xylose (RNase J1 expressed); cleavage site: cggR-gapA (positions -7 to +36 mutated)
Consider the following partition of reported cleaved RNA product abundance into named classes: low bracket = under 0.2, middle bracket = from 0.2 up to 0.4, high bracket = 0.4 and over

{"columns": ["SEQUENCE RECORD", "ASSIGNED LABEL"],
 "data": [
  ["ACAGACGAAGGAGCCGCAAAGAAGTTATCAAGGGATGAATAATGCCTCAATATAAATATCTCTCACTTATTTAAA", "low bracket"],
  ["ACAGACGAAGGAGCCGCAAACAAGTTAATAAGGGATGAATAATCCCTCAATATAAATATCTCTCACTTATTTAAA", "middle bracket"],
  ["ACAGACGAAGGAGCCGCAAAGAAGTTATTAGGGGATGAATAATCCCTCAAAATAAATATCTCTCACTTATTTAAA", "high bracket"],
  ["ACAGACGAAGGAGCCGCGAAGAAGTTATTATGGGATGAATAATCCCTCAATATAAATATCTCTCACTTATTTAAA", "middle bracket"],
  ["ACAGACGAAGGAGCCGCAAAGAAGTTATTAAGGGATGCATCATCCCTCAATATAAATATCTCTCACTTATTTAAA", "middle bracket"],
  ["ACAGACGAAGGAGCCGCAAAGAAGTTATTAAGGGATGTATAATCGCTCAATATAAATATCTCTCACTTATTTAAA", "low bracket"],
  ["ACAGACGAAGGAGCCGCAAAGAAGTTATTATGGGATGAATAATCCCTCAAAATAAATATCTCTCACTTATTTAAA", "middle bracket"],
  ["ACAGACGAAGGAGCCGCAAAGAAGTTATTAAGGGATGAAGATTCCCTCAATATAAATATCTCTCACTTATTTAAA", "high bracket"],
  ["ACAGACGAAGGAGCCGCAAAGAAGTTATTAAGTGATGAATAATCCCTCAATAAAAATATCTCTCACTTATTTAAA", "low bracket"],
  ["ACAGACGAAGGAGCCGCAAAGAAGTTATTATGGTATGAATAATCCCTCAATATAAATATCTCTCACTTATTTAAA", "low bracket"],
  ["ACAGACGAAGGAGCCGCAAAGAAGTTATTCAGGGATAAATAATCCCTCAATATAAATATCTCTCACTTATTTAAA", "high bracket"],
  ["ACAGACGAAGGAGCCGCAAAGAAGTTATTAAGAGATGAATATTCCCTCAATATAAATATCTCTCACTTATTTAAA", "low bracket"],
  ["ACAGACGAAGGAGCCGCAAAGAAGTTATTAAGGGATAAATCATCCCTCAATATAAATATCTCTCACTTATTTAAA", "high bracket"],
  ["ACAGACGAAGGAGCCGCAAAGAAGTTATTAAGGGATAAATAATTCCTCAATATAAATATCTCTCACTTATTTAAA", "middle bracket"],
  ["ACAGACGAAGGAGCCGCAAAGAAGTTATTAAGGGATGAATAATCCCTCAATAGAAATATCTCTCACTTATTTAAA", "low bracket"]
]}
